tgt: Procathepsin L (Homo sapiens)
protocolDescription: cathepsin L1 inhibitors, retest, confirmation, counter-screen for PFM18AAP inhibitor project, biochemical, QFRET, triplicate (AID 2178);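 note: 0% = median of test compound wells and 100% = Z-Phe-Ala-diazomethylketone 1 µM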
conditionsUsed: purified cathepsin L1, Z-Leu-Arg-MCA fluorescence; at 5.96 µM; active compounds read high
Hit rate of the full screen: of about 2,400 compounds, fewer than 10 were called active. These entries were drawn from the full list.
Recorded inhibition for the following molecules
reportedEndpoint: inhibition

molecule | reportedEndpoint | reading
COc1ccc2c(c1)C(C)=CC(C)(C)N2C(=O)Nc1ccccc1 | inhibition | 0.44% (inactive)
Cc1ccc(Cl)cc1-c1ccc(/C=N/n2cnnc2)o1 | inhibition | 3.57% (inactive)
CCN(CC)c1ccc2oc(=O)c(C)nc2c1 | inhibition | -1.42% (inactive)
CC(C)C1N=C2c3ccccc3N=C(SCC(=O)c3ccc(O)c(O)c3)N2C1=O (centres undefined) | inhibition | 6.47% (inactive)

* * *

tgt: Procathepsin L (Homo sapiens) (UniProt P07711)
Sequence (P07711 whole entry, looked up): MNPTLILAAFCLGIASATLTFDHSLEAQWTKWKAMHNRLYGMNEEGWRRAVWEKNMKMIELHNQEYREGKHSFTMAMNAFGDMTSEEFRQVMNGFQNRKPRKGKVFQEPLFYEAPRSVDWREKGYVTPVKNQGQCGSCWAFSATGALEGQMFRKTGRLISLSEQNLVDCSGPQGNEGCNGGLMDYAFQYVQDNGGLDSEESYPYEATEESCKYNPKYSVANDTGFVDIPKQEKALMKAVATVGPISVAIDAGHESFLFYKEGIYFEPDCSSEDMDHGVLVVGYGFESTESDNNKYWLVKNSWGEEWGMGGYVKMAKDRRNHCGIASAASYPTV
protocolDescription: cathepsin L1 inhibitors, retest, confirmation, counter-screen for PFM18AAP inhibitor project, biochemical, QFRET, triplicate (AID 2178);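 note: 0% = median of test compound wells and 100% = Z-Phe-Ala-diazomethylketone 1 µM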
conditionsUsed: purified cathepsin L1, Z-Leu-Arg-MCA fluorescence; at 5.96 µM; active compounds read high
The campaign covered roughly 2,400 compounds. Fewer than 10 were called active. The list is a sample of the results.
reportedEndpoint: inhibition (%)

compound | reading
O=C(CSc1ncn[nH]1)Nc1nc(-c2cccc([N+](=O)[O-])c2)cs1 | 1.01
COc1ccc(OCc2n[nH]c(=S)n2N)cc1 | -6.49
Cc1cccc(NC(=O)c2sc3nc(N4CCOCC4)c4c(c3c2N)CCCC4)c1 | -1.63
O=C(CC(n1cncn1)C(Cl)(Cl)Cl)c1ccc([N+](=O)[O-])cc1 (stereo not drawn) | 1.47
Cc1onc(-c2ccccc2)c1C(=O)NNC(=S)NC(=O)c1ccc(F)cc1 | 3.64
Cc1cc(C)nc(NNC2=CC(=O)CC(C)(C)C2)n1 | -3.35
Cc1csc(NC(=O)NC2(C(F)(F)F)Oc3ccccc3O2)n1 | -4.56
c1ccc2sc(NN=C3CCCC3)nc2c1 | 0.11
Cn1sc(=O)c2cc(S(=O)(=O)NC3CC3)ccc21 | -0.58
CC(=O)N(c1ccc2oc(=O)sc2c1)S(=O)(=O)c1ccc(C)cc1 | -0.05
Cc1cc(/C=N/Nc2ccc([N+](=O)[O-])cn2)c(C)n1-c1cccc(C(=O)O)c1 | 3.84
CC(C)(C)C(=O)OCc1nc(-c2ccc(O)c(O)c2)cs1 | -4.53
CCOCCCNC(=O)c1ccc(CS(=O)(=O)c2cccc(C(F)(F)F)c2)o1 | -1.17
O=C(CSc1ncn[nH]1)Nc1ccnc2ccccc12 | -0.72
Oc1ccc(N2CCN(C(=S)NCc3ccccc3)CC2)cc1 | 0.35
Cc1ccc(S(=O)(=O)N/N=C\c2cc3c(cc2[N+](=O)[O-])OCO3)cc1 | -3.66
Oc1ccc(-c2csc(Nc3cccnc3)n2)cc1 | 6.56
Cc1ccc(-c2noc(CC(c3ccccc3)c3ccccc3)n2)cc1 | 2.35
CCOc1ccc(-n2c(O)c(/C=N/Nc3nnc(C)c(=O)[nH]3)c3ccccc3c2=O)cc1 | -0.55
CC1CCN(C(=O)c2ccc3c(c2)NC(=O)CN3)CC1 | -3.71
O=C(CSc1ncn[nH]1)Nc1nsc(-c2ccccc2)n1 | 1.95
O=C(Nn1cnnc1)c1cc(Cl)ccc1Cl | -2.58
Cc1nccn1CC(=O)N/N=C/c1ccc(O)c(O)c1 | 5.14
